Biological target: AgMyo5
Assay: SPOT peptide array binding signal intensity (averaged, normalized) (arbitrary units (background-subtracted, floor 0; scale differs between SH3 domains)); higher = stronger binding of the SH3 domain to the peptide
# SPOT peptide array binding signal intensity annotations
Give the figure by itself; no unit, no explanation.

// solved cases for SPOT peptide array binding signal intensity follow
BINDER: KTRLRPAFIQQLWSS
OBS VALUE: 3
//
BINDER: PPIPIVPSSPAPPLP
OBS VALUE: 2150
//
BINDER: ATKSASPTLPTRRSR
OBS VALUE: 5.5
//
BINDER: LYEAMPPTLPHRDWK
OBS VALUE: 0.5
//
BINDER: FSRRQSMDIPSKNRN
OBS VALUE: 16

Turning now to a further binder:
Task: Would you mind telling me what SPOT peptide array binding signal intensity value was observed for `VPVAPPPPPASLGQS` ?
Output: 4.25
